This listing pairs molecules with measured viability at 28.5 h, 10 µM.
- assay: in vitro
- cond: human, hela cells, % viability
quantityName: viability at 28.5 h, 10 µM (%)

molecule | quantityName | u | value
CC(C)(C)OC(=O)N1CCN(Cc2ccc(N)c3ccccc23)CC1 | viability at 28.5 h, 10 µM | % | 109
Cc1cccc(Cn2nc(C)c(NC(=O)COc3ccccc3)c2C)c1 | viability at 28.5 h, 10 µM | % | 93.5
c1ccc(-c2c(-c3ccccc3)n(Cc3ccco3)c3ncn4nc(-c5ccncc5)nc4c23)cc1 | viability at 28.5 h, 10 µM | % | 89.6
CNCCc1n[nH]c(N)n1 | viability at 28.5 h, 10 µM | % | 89.4
Cc1cc(NS(=O)(=O)c2ccc(NC(=O)/C=C/c3ccc(C)o3)cc2)nc(C)n1 | viability at 28.5 h, 10 µM | % | 96.5
OCCN1CCN(C2CCN(Cc3ccccc3Cl)CC2)CC1 | viability at 28.5 h, 10 µM | % | 90.1
Cc1c(C(=O)N(C)Cc2csc(Br)c2)nnn1C1CCNCC1 | viability at 28.5 h, 10 µM | % | 104
Cc1cc(C)nc(NC(=O)OCCc2cccnc2)c1 | viability at 28.5 h, 10 µM | % | 95.1
COc1ccc(Cl)c(Cn2c(NCc3ccccn3)nc3c2c(=O)n(C)c(=O)n3C)c1 | viability at 28.5 h, 10 µM | % | 97.6
Cc1ccc(C(=O)C2=C(O)C(=O)N(CCCN3CCOCC3)C2c2ccccn2)o1 (centres unmarked) | viability at 28.5 h, 10 µM | % | 89.7
Cn1nccc1C(=O)C1CCN(C(=O)c2cccc(F)c2)CC1 | viability at 28.5 h, 10 µM | % | 89.2
CCn1cncc1CN1CC2CCCC(O)(c3ccc(F)cc3)C2C1 (centres unmarked) | viability at 28.5 h, 10 µM | % | 104
O=C1CC(c2ccccc2)c2c(n3ccsc3nc2=O)N1 (centres unmarked) | viability at 28.5 h, 10 µM | % | 98.7
CN1C(=O)c2cccc3c(S(=O)(=O)Nc4ccc(C(=O)O)c(O)c4)ccc1c23 | viability at 28.5 h, 10 µM | % | 109
O=C(NC(c1cccnc1)c1ccc2c(c1)OCO2)C1CCN(CCc2cccs2)CC1 (centres unmarked) | viability at 28.5 h, 10 µM | % | 105
CC(=O)Nc1nc(-c2ccccc2C)ccc1C(=O)NC1CCCCC1 | viability at 28.5 h, 10 µM | % | 99
CCOC(=O)C1(N)CCCC1 [CBK073836C] | viability at 28.5 h, 10 µM | % | 94.4
O=C(Nc1ccc2oc(-c3cccnc3)nc2c1)c1ccc(-c2ccc(OC(F)(F)F)cc2)o1 | viability at 28.5 h, 10 µM | % | 101
Cc1nn(CCC(=O)NC(c2ccccc2)c2cccnc2)c(C)c1C (centres unmarked) | viability at 28.5 h, 10 µM | % | 86.3
CCOC(=O)c1c(C)oc2ccc(O)c(CN3CCCCC3)c12 [CBK263838C] | viability at 28.5 h, 10 µM | % | 103

----------
- assay: in vitro
- cond: human, hela cells, % viability
quantityName: viability at 28.5 h, 10 µM (%)

molecule | quantityName | u | value
O=C(CSc1cnn[nH]1)Nc1ccc(F)cc1 | viability at 28.5 h, 10 µM | % | 89.6
Cc1c(C(C)NC(=O)C2C3CCC(O3)C2C(=O)O)cnn1C (centres unmarked) | viability at 28.5 h, 10 µM | % | 91.4
CCOc1cccc(/C=N\NC(=O)C2COc3cc4ccccc4cc3O2)c1O (centres unmarked) | viability at 28.5 h, 10 µM | % | 110
O=C(CCSc1ccc(Cl)cc1)NCCc1ccccc1 | viability at 28.5 h, 10 µM | % | 86.4
CCn1c(SCC(=O)Nc2ccc(N3CCOCC3)cc2)nnc1-c1ccncc1 | viability at 28.5 h, 10 µM | % | 89.7
OCCN1CCN(C(c2cccs2)c2ccc3cccnc3c2O)CC1 (centres unmarked) | viability at 28.5 h, 10 µM | % | 76.7
CN1CCCN(Cc2cccc3ccccc23)CC1 | viability at 28.5 h, 10 µM | % | 96.4
O=C(NCc1cc(Br)ccc1F)C1CC(=O)N(Cc2ccccn2)C1 (centres unmarked) | viability at 28.5 h, 10 µM | % | 85.7
CCC(Sc1nnc2c(n1)[nH]c1ccccc12)C(=O)N1c2ccccc2Sc2ccccc21 (centres unmarked) | viability at 28.5 h, 10 µM | % | 95.1
CCn1c(CN2CCOCC2)nnc1SCC(=O)Nc1cc(Cl)ccc1C | viability at 28.5 h, 10 µM | % | 93.8
O=[N+]([O-])c1ccccc1OCCCn1c2ccccc2c2ccccc21 | viability at 28.5 h, 10 µM | % | 92.1
CC(C)(C)C(=O)NC1(C(F)(F)F)N=C(c2ccccc2)NC1=O (centres unmarked) | viability at 28.5 h, 10 µM | % | 88.7
FC(F)(F)c1ccnc(Sc2nccs2)n1 | viability at 28.5 h, 10 µM | % | 91.9
COc1ccc(OC(=O)c2cccc(F)c2)c(C(C)=O)c1 | viability at 28.5 h, 10 µM | % | 89
O=C(NCc1ccccn1)/C(=N/O)c1ccccc1 | viability at 28.5 h, 10 µM | % | 114
COc1ccc(C(C)C)cc1-c1cncc(NC(C)CCCC(C)(C)O)n1 (centres unmarked) | viability at 28.5 h, 10 µM | % | 93.3
O=[N+]([O-])c1ccc(COc2cccc(/C=N/Nc3nc4ccccc4s3)c2)cc1 | viability at 28.5 h, 10 µM | % | 87.8
CC(C)(c1ccccc1)c1ccc(OCCOc2ccc(/C=C3\SC(=S)NC3=O)cc2)cc1 | viability at 28.5 h, 10 µM | % | 91
CC(C)(C)OC(=O)N1CCC(C2OCc3cc(C(=O)N4CCNC(=O)C4)ccc3O2)CC1 (centres unmarked) | viability at 28.5 h, 10 µM | % | 105
CCOC(=O)c1c(NC(=O)Cn2cnc([N+](=O)[O-])n2)sc2c1CCCC2 | viability at 28.5 h, 10 µM | % | 88.4
Cc1c(C(=O)O)sc2nc(C=Cc3ccc(OCCC(C)C)cc3)[nH]c(=O)c12 | viability at 28.5 h, 10 µM | % | 94
FC(F)(F)c1cccc(SCc2ccc(Cl)cc2)n1 | viability at 28.5 h, 10 µM | % | 91.9
CS(=O)(=O)c1cccc(C(=O)Nc2cnc(-c3ccc(F)c(Cl)c3)c(-c3cccnc3)n2)c1 | viability at 28.5 h, 10 µM | % | 101
Cc1cc(C)nc(SCC(=O)Nc2ccc(C(=O)O)cc2)n1 | viability at 28.5 h, 10 µM | % | 97.8
c1cncc(-c2cn3ccnc3c(NC3CCCCC3)n2)c1 | viability at 28.5 h, 10 µM | % | 84.6
Cc1ccc(S(=O)(=O)/N=C(\Nc2nc3ccccc3o2)NS(=O)(=O)c2ccc(C)cc2)cc1 | viability at 28.5 h, 10 µM | % | 86
COc1ccc(C(=O)Nc2ccccc2O)cc1S(=O)(=O)N1CCCCC1 | viability at 28.5 h, 10 µM | % | 92.6
CNC(=O)C1CCN(Cc2ccc(-c3nnn(CC(=O)NCc4ccc(C)cc4)n3)cc2)CC1 [CBK153195T] | viability at 28.5 h, 10 µM | % | 96.1
CC1CN(Cc2nc3c(c(=O)n(C)c(=O)n3C)n2CCCc2ccccc2)CC(C)O1 (centres unmarked) | viability at 28.5 h, 10 µM | % | 91.7
CCOc1cccc(NC(=O)/C(C#N)=C\c2cc(C)n(-c3ccc4c(c3)OCO4)c2C)c1 | viability at 28.5 h, 10 µM | % | 85.9
COc1cccc2cc(C(=O)NCc3ccc4c(c3)OCO4)oc12 | viability at 28.5 h, 10 µM | % | 90.9
O=[N+]([O-])c1ccc(OC(CNS(=O)(=O)c2ccc(Cl)cc2)c2ccccc2)cc1 (centres unmarked) | viability at 28.5 h, 10 µM | % | 93
O=C(O)c1cc(-n2c(S)nnc2-c2ccncc2)ccc1Cl | viability at 28.5 h, 10 µM | % | 94.9
CCCS(=O)(=O)NC1CC(C)(C)Cc2c1cnn2-c1ccc(C)cc1 (centres unmarked) | viability at 28.5 h, 10 µM | % | 86.5
NC(=O)N1CCC(C(=O)N2CC3(CCCC3)c3c(F)cccc32)CC1 | viability at 28.5 h, 10 µM | % | 108
Clc1cc(N2CCCC2)ncn1 | viability at 28.5 h, 10 µM | % | 99.2
CNc1nc(C(C)(C)C)cs1 | viability at 28.5 h, 10 µM | % | 88.2
CC(C)c1ccc(SCCc2ccccn2)cc1 [CBK026575C] | viability at 28.5 h, 10 µM | % | 88.8
